Provenance of the data: ChEMBL document CHEMBL5058577

Provide the reported Total Cell Count of each item.
Tested on: HEK-293T
measurement-notes: Multiplex assay against HEK293T
Type: toxicity, cell-based
measurement-parameters: human, 48 h, 1 µM, compound concentration 1 uM, replicate 2
Reply with the value as a number alone.

Recorded Total Cell Count for Cc1onc(-c2ccccc2Cl)c1C(=O)N(C)c1ccc(Cl)cc1 , please?
620

Recorded Total Cell Count for NCCc1cn(S(=O)(=O)c2c(Cl)nc3sccn23)c2ccccc12.O=C(O)C(=O)O , please?
678

Recorded Total Cell Count for CC(C)(C)c1cc(NC(=O)Nc2ccc(-c3cn4c(n3)sc3cc(OCCN5CCOCC5)ccc34)cc2)no1 [QUIZARTINIB] , please?
566

Recorded Total Cell Count for N#Cc1c(Oc2cccc(OS(=O)(=O)CCCC(F)(F)F)c2)cccc1C(F)(F)F , please?
568

Recorded Total Cell Count for CN[C@@H](C)C(=O)N[C@H](C(=O)N1CCC[C@H]1C(=O)Nc1snnc1-c1ccccc1)C1CCCCC1 [GDC-0152] , please?
603

Recorded Total Cell Count for CC(/C=C1\SC(=S)N(CCCC(=O)Nc2ccc(C(=O)O)c(O)c2)C1=O)=C\c1ccccc1 , please?
673

====

Tested on: HEK-293T
measurement-notes: Multiplex assay against HEK293T
Assay type: toxicity, cell-based
measurement-parameters: human, 48 h, 1 µM, compound concentration 1 uM, replicate 2
value-type: Population Apoptotic (%)
Provide the reading as a plain figure in %.

Recorded Population Apoptotic (%) for O=C(CCCc1ccccc1)Nc1nc2ccccc2c(=O)s1 , please?
38

Recorded Population Apoptotic (%) for CC(C)c1noc(N2CCC(COc3ccc(-c4ccc(S(C)(=O)=O)cc4)nc3)CC2)n1 , please?
23

Recorded Population Apoptotic (%) for Cc1noc(-c2ccc(-c3ccc(CC(=O)O)cc3)cc2)c1NC(=O)O[C@H](C)c1ccccc1Cl , please?
35

Recorded Population Apoptotic (%) for CC(C)COc1ccc(CNC(=O)N(Cc2ccc(F)cc2)C2CCN(C)CC2)cc1 , please?
48

Recorded Population Apoptotic (%) for CC(=O)Nc1cccc2c1c(Sc1ccc(Cl)cc1)c(C)n2CC(=O)O , please?
38

====

Tested on: Fibroblast
measurement-notes: Multiplex assay against human fibroblast
Type: toxicity, cell-based
measurement-parameters: 48 h, 10 µM, compound concentration 10 uM, replicate 2
value-type: Population Membrane Permeable-Phenotype (%)
Provide the reading as a plain figure in %.

Recorded Population Membrane Permeable-Phenotype (%) for CC[C@@H](C)Nc1nc(C)nc2c(-c3ccc(OC)nc3C)c(C)nn12 , please?
12

Recorded Population Membrane Permeable-Phenotype (%) for CC(C)COc1ccc(CNC(=O)N(Cc2ccc(F)cc2)C2CCN(C)CC2)cc1 , please?
3

Recorded Population Membrane Permeable-Phenotype (%) for CN[C@@H](C)C(=O)N[C@H](C(=O)N1CCC[C@H]1C(=O)Nc1snnc1-c1ccccc1)C1CCCCC1 , please?
19

Recorded Population Membrane Permeable-Phenotype (%) for O=C(CCCc1ccccc1)Nc1nc2ccccc2c(=O)s1 , please?
10

Recorded Population Membrane Permeable-Phenotype (%) for Cc1sc2c(c1C)C(c1ccc(Cl)cc1)=N[C@@H](CC(=O)NCCCCCCCCNC(=O)COc1cccc3c1C(=O)N(C1CCC(=O)NC1=O)C3=O)c1nnc(C)n1-2 (stereo partly drawn) , please?
14

Recorded Population Membrane Permeable-Phenotype (%) for COc1ccccc1N1CCN(C[C@@H](C(=O)NC(C)(C)C)c2ccccc2)CC1.Cl.Cl , please?
8

Recorded Population Membrane Permeable-Phenotype (%) for NCCc1cn(S(=O)(=O)c2c(Cl)nc3sccn23)c2ccccc12.O=C(O)C(=O)O , please?
3

Recorded Population Membrane Permeable-Phenotype (%) for CC(=O)Nc1cccc2c1c(Sc1ccc(Cl)cc1)c(C)n2CC(=O)O , please?
11

Recorded Population Membrane Permeable-Phenotype (%) for Cc1c(CC(=O)O)c2cccnc2n1Cc1ccc(S(C)(=O)=O)cc1C(F)(F)F , please?
3

Recorded Population Membrane Permeable-Phenotype (%) for CC(/C=C1\SC(=S)N(CCCC(=O)Nc2ccc(C(=O)O)c(O)c2)C1=O)=C\c1ccccc1 , please?
5

Recorded Population Membrane Permeable-Phenotype (%) for Cl.N=C(N)NC(=O)Cc1c(Cl)cccc1Cl [GUANFACINE HYDROCHLORIDE] , please?
8

Recorded Population Membrane Permeable-Phenotype (%) for Br.CS(=O)(=O)Nc1c(O)ccc2c1CCCC2C1=NCCN1 (stereo not drawn) , please?
3

Recorded Population Membrane Permeable-Phenotype (%) for Cc1cnc(-c2cc(N3CCN(C(=O)CCS(C)(=O)=O)CC3)ncc2Cl)c(C)c1 , please?
2
